tested_target: AgLsb4
assay_method_text: SPOT peptide array binding signal intensity (averaged, normalized) (arbitrary units (background-subtracted, floor 0; scale differs between SH3 domains)); higher = stronger binding of the SH3 domain to the peptide
Field: SPOT peptide array binding signal intensity. Provide a value for each of the binders that follow.
Form rule: numeric answer, no unit written next to it.

INPUT: Record request: SPOT peptide array binding signal intensity value, item "NRPAIRIPSLKKPAL"
OUTPUT: 18.5

INPUT: Record request: SPOT peptide array binding signal intensity value, item "NAGIRPKFILALNDE"
OUTPUT: 25

INPUT: Record request: SPOT peptide array binding signal intensity value, item "GQYRRTIVIPRRFFT"
OUTPUT: 211

INPUT: Record request: SPOT peptide array binding signal intensity value, item "LYEAMPPTLPHRDWK"
OUTPUT: 518

INPUT: Record request: SPOT peptide array binding signal intensity value, item "NMLKKKPLKKPLKRF"
OUTPUT: 84

INPUT: Record request: SPOT peptide array binding signal intensity value, item "IPSRPAPKPPSSASA"
OUTPUT: 12

INPUT: Record request: SPOT peptide array binding signal intensity value, item "NHSRSLFSLPGNQQS"
OUTPUT: 45

INPUT: Record request: SPOT peptide array binding signal intensity value, item "SRYRRPLTLLLLKPF"
OUTPUT: 270

INPUT: Record request: SPOT peptide array binding signal intensity value, item "RSLRKRPTSPSISGS"
OUTPUT: 326

INPUT: Record request: SPOT peptide array binding signal intensity value, item "GKKVRPLLVLLLSRA"
OUTPUT: 702

INPUT: Record request: SPOT peptide array binding signal intensity value, item "LLGRKRPVMERVVDI"
OUTPUT: 65.5

INPUT: Record request: SPOT peptide array binding signal intensity value, item "VLRFLGFPLPIFEKG"
OUTPUT: 36

INPUT: Record request: SPOT peptide array binding signal intensity value, item "NNNKMRPHLPPLSSG"
OUTPUT: 34.5
